B1: IKZF1 (parent)
chain: RDPFECNMCGYHSQDRYEFSSHIT

variants of: B1; assay: protein stability index of a GFP-peptide fusion (GPS, HEK-293T) (PSI 1-6); higher = more stable; details: c terminus: a fixed tail appended;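 further: lentivirally expressed fusions sorted by FACS into six bins by GFP to DsRed ratio, PSI derived from sequencing read proportions per bin multiplied by bin number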
Task for the reader: assign each of the following variants its reported protein stability index.

Reference set, count: 2
>  <mutation>
S13E

>  <protein stability index>
2.53

$$$$
>  <mutation>
G10A

>  <protein stability index>
2.16

$$$$

Items follow; give protein stability index for each.
1. S21K
2. E5D
3. Y11E
4. F4Q

1: 2.28; 2: 2.7; 3: 3.29; 4: 2.91
